molecular target: pre-pro-insulin glargine
Answer each item with its documented desArg.

Query :: I have this protein here, trypsin variant SEQ ID NO: 118 (protein) IVGGYTCAANSIPYQVSLNSGSHRCGGSLINSQWVVSAAHCYKPRIQVRLGEHNIHVLEGNEQFINAAKIITHPNFNGNTLDNDIMLIKLSSPATLNSHVATVSLPTSCAAAGTECLISGWGNTASSGSSMPSLLQCLKAPVLSDSSCKSSYPGQITGNMICVGFLEGGADACQGDSGGPVVCNGQLQGIVSSGYGCAQKNKPGVYTKVCNYVNWIQQTIAAN , and I need its recorded desArg.
Result :: 0.6 area %

Query :: Note, next up: trypsin variant SEQ ID NO: 115 (protein) IVGGYTCAANSIPYQVSLNSGSHRCGGSLINSQWVVSAAHCYKPRIQVRLGEHNIHVLEGNEQFINAAKIITHPNFNGNTLDNDIMLIKLSSPATLNSNVATVSLPTSCAAAGTECLISGWGNTSSSGSSMPSLLQCLKAPVLSDSSCKSSYPGQITGNMICVGFLEGGKDACQGDSGGPVVCNGQLQGIVSSGYGCAQKNKPGVYTKVCNYVNWIQQTIAAN
Result :: 0.8 area %

Query :: Note, next up: trypsin variant SEQ ID NO: 102 (protein) IVGGYTCAANSIPYQVSLNSGSHRCGGSLINSQWVVSAAHCYKPRIQVRLGEHNIHVLEGNEQFINAAKIITHPNFNPNTLDNDIMLIKLSSPATLNSHVATVSLPTSCAAAGTECLISGWGNTSSSGSSMPSLLQCLKAPVLSDSSCKSSYPGQITGNMICVGFLEGGADACQGDSGGPVVCNGQLQGIVSSGYGCAQKNKPGVYTKVCNYVNWIQQTIAAN
Result :: 0.4 area %
